Listed next: entries and their corresponding protein stability index.
B1: PKD2L1 (parent)
chain: YSGGGYYLDLPGSRQGSAEALRAL

# Variants of: B1
# MEASUREMENT_PROTOCOL: protein stability index of a GFP-peptide fusion (GPS, HEK-293T) (PSI 1-6); higher = more stable;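 note: lentivirally expressed fusions sorted by FACS into six bins by GFP to DsRed ratio, PSI derived from sequencing read proportions per bin multiplied by bin number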
# TEST_CONDITIONS: c terminus: a fixed tail appended
API doc: respond with a numeric literal and nothing else, no unit.

// known answers, use as guide
* YPGGGYYLDLPGSRQGSAEALRAL | 3.27
* YSGGGYFLDLPGSRQGSAEALRAL | 1.56
* YSGGGYYLDLPGSRQGSAEASRAL | 2.27
* YSGGGYYLELPGSRQGSAEALRAL | 2.01
* YSGGGYYLDLPGSRHGSAEALRAL | 1.28
* YSGGGYYLDLPGIRQGSAEALRAL | 1.25
* YSGGGYYLDLPGSRYGSAEALRAL | 2.17
* YSGGGYYLDMPGSRQGSAEALRAL | 1.66
* YSGGGYYLDLPGSRQNSAEALRAL | 1.51
* YSGGGYYLDLPGSRQGSAEALRLL | 1.73

Req: Any idea what its protein stability index is? The variant is "YSGGGYYLDLPGSRQGSAEALEAL"
Resp: 1.86

Req: Field entry: "YSGAGYYLDLPGSRQGSAEALRAL"
Resp: 1.56

Req: Field entry: "HSGGGYYLDLPGSRQGSAEALRAL"
Resp: 3.5

Req: Field entry: "YSGGGYYLDLPSSRQGSAEALRAL"
Resp: 2.21

Req: Field entry: "YSGGHYYLDLPGSRQGSAEALRAL"
Resp: 2.28

Req: Field entry: "YSGGGYYLDLPNSRQGSAEALRAL"
Resp: 2.36

Req: Field entry: "YSGGGFYLDLPGSRQGSAEALRAL"
Resp: 2.25

Req: Field entry: "YSGGGYYLDLPGSRQGSAENLRAL"
Resp: 2.02

Req: Field entry: "YSGGGYYLDLPGSRQGSAEAMRAL"
Resp: 3.01

Req: Field entry: "YSGGGYYLDLPGSPQGSAEALRAL"
Resp: 1.37

Req: Field entry: "YSGGGYYLDLPGSRQGSAELLRAL"
Resp: 1.72

Req: Field entry: "YSGGGYHLDLPGSRQGSAEALRAL"
Resp: 2.26
